These measurements were taken from ChEMBL document CHEMBL1132913.

- protocol.description: Partition coefficient (logP)
- Format: physicochemical
- experimental.conditions: octanol/water; read-out: logP
I'd appreciate it if you marked entries Criterion met when logP is lower than 5 and Criterion not met when it is not.

molecule | class.label
c1ccc(CCN2CCC3=C(C2)C(c2ccccc2)c2ccccc23)cc1 (stereo not drawn) | Criterion not met
C1=C2C(=C(c3ccccc3)c3ccccc32)CNC1 | Criterion met
CN1CCC2C(=C(c3ccccc3)c3ccccc32)C1 (stereo not drawn) | Criterion not met
c1ccc(CN2CCC3=C(C2)C(c2ccccc2)c2ccccc23)cc1 (stereo not drawn) | Criterion not met
CCN1CCC2C(=C(c3ccccc3)c3ccccc32)C1 (stereo not drawn) | Criterion not met

Now examine the next entry.
Q. Please check: logP for c1ccc(CCN2CCC3C(=C(c4ccccc4)c4ccccc43)C2)cc1 (stereo not drawn) , strictly under 5 or not?
A. Criterion not met
